Experiment: NCI Yeast Anticancer Drug Screen. Data for the rad50 strain (AID 155);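 further: 0% = growth of vehicle-only cultures of the same strain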
Conditions: S. cerevisiae rad50 strain growth inhibition, hits give high values; at 50.0 µM unless noted
Experimental: Growth inhibition of yeast strains with defined genetic alterations is measured as a screen for potential anti-cancer activity. Selected strains with alterations in DNA damage repair or cell cycle control were exposed to compounds and growth inhibition was measured relative to vehicle treated controls. The strain used in this assay is rad50
About 79,000 compounds went through this panel and 15% of them were active in at least one assay; those are over-represented in the sample as a whole.
READOUT NAME: growth inhibition (%)
One number for each entry, in %.

COMPOUND | READOUT NAME | VALUE OBSERVED
CC1(O)CCCC1(C)O (stereo not drawn) | growth inhibition | -29.1
Cc1ccc(S(=O)(=O)c2c3[nH]c4ccccc4nc3n3c2nc2ccccc23)cc1 | growth inhibition | -14.2

# next compound below
-- ask For COc1cc(OC)c(/C=N/N=C(\N)NO)c(OC)c1 , what is its reported growth inhibition?
-- reply -8.95

###

Test: NCI Yeast Anticancer Drug Screen. Data for the mec2-1 strain (AID 157)
Settings: S. cerevisiae mec2-1 strain, hits give high values; at 50.0 µM unless noted
About 79,000 compounds went through this panel and 15% of them were active in at least one assay; those are over-represented in the sample as a whole.
Please respond with reported growth inhibition for every item in the list.
One number for each entry, in %.

Previously resolved entries follow.
COMPOUND | growth inhibition, %
NC(=O)C(c1ccccc1)C1(O)CCCCC1 (centres undefined) | 5.7
CC1=C(C(=O)Nc2cc(=O)n(C)c(=O)n2C)C(c2ccco2)C(C(=O)Nc2cc(=O)n(C)c(=O)n2C)=C(C)N1 | 17.9

For each of the items listed, what is its growth inhibition?
1. Cc1cc(C)c2ccc(Cl)nc2n1
2. Cc1cnc2ccccc2n1 (tested in a mixture with another compound)
3. C=CCOC(=O)C(C)OC(=O)CCC(=O)OC(C)C(=O)OCC=C (centres undefined)
4. CC1(C)CCC(CC(=O)O)(CC(=O)O)CC1
5. O=C1OC(c2ccccc2)=N/C1=C/C=C/c1ccco1

-- reply
0.55
4.35
4.3
8.8
-5.45

Give growth inhibition for each of the items listed below.
1. CCC(Cl)COP(=O)(OCC(Cl)CC)O/C(C)=C(\C)OP(=O)(OCC(Cl)CC)OCC(Cl)CC (centres undefined)
2. CC#CC#C/C(=C/C=CC(=O)OC)SC

-- reply
[13.3, -18.9]

###

Experiment: NCI Yeast Anticancer Drug Screen. Data for the cln2 rad14 strain (AID 165);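 further: 0% = growth equal to vehicle treated cultures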
Conditions: S. cerevisiae cln2 rad14 strain, hits give high values; at 50.0 µM unless noted
About 79,000 compounds went through this panel and 15% of them were active in at least one assay; those are over-represented in the sample as a whole.
Consider the following molecules; for each one, report its growth inhibition.
Give bare numbers, in %.

The examples below pair each entry with its known result.
MOLECULE | RESULT UNITS | VALUE OBSERVED
CC(=O)OCc1c(COC(C)=O)c(-c2ccc(Cl)cc2)n2c1CCC2 | % | -18.1
COc1ccc(SSc2ccc(OC)cc2C(=O)O)c(C(=O)O)c1 | % | 1.4
CN1CCCC1CCN (stereo unspecified) | % | -1
Cc1cn(C2CC3C(COC(c4ccccc4)N3O)O2)c(=O)[nH]c1=O (stereo unspecified) | % | 2.7
CC1=NN(C(=O)Cc2ccccc2)C(=O)/C1=C\C=C\c1ccccc1 | % | -9.2

Kindly give each listed record's growth inhibition.
1. CCOC(=O)Cc1nc2nn(Cc3ccccc3)cc2c(=O)[nH]1
2. CN(C)c1ccc(N)c(N)c1
3. CC1(C)OCC[C@@H]1[Si](C)(C)C
4. CCCCCP(=O)(O)O.[Cu+2]
5. CCOC(=O)CC(C#N)(C#N)CC(=O)OCC

-- reply
1. 0.65
2. 12.1
3. 2.8
4. -40
5. -0.1

-- ask I'd like to know its growth inhibition. The molecule in question is CC1OC(O[C@H]2CC[C@]3(C)[C@H]4CC=C5[C@@H]6[C@@H](C)[C@H](C)CC[C@]6(C(=O)OC6OC(CO)C(O)C(O)C6O)CC[C@@]5(C(=O)O)[C@]4(C)CC[C@H]3C2(C)C)C(O)C(O)C1O (stereo partly specified)
-- reply -29.5
